Every entry's value here was drawn from the supplement of paper PMC10307832.

test system: NCI-H1944; test: relative viability (nuclei count vs DMSO), 5 days (fraction); higher = more cells survive; conditions: first compound 0.005 µM
Listed below: relative viability values for each entry.

Nc1ccn([C@@H]2O[C@H](CO)[C@@H](O)[C@@H]2O)c(=O)n1 [Cytarabine] + CC1(C)CCC(c2ccc(Cl)cc2)=C(CN2CCN(c3ccc(C(=O)NS(=O)(=O)c4ccc(N[C@H](CCN5CCOCC5)CSc5ccccc5)c(S(=O)(=O)C(F)(F)F)c4)cc3)CC2)C1 [Navitoclax] (partner 0.5 µM); 0.605
COc1cc2nccc(Oc3ccc(NC(=O)Nc4cc(C)on4)c(Cl)c3)c2cc1OC [Tivozanib] + C[C@]1(O)C[C@@H](c2nc(-c3ccc4ccc(-c5ccccc5)nc4c3)c3c(N)nccn32)C1 [Linsitinib] (partner 1 µM); 1.14
COc1cc2nccc(Oc3ccc(NC(=O)Nc4cc(C)on4)c(Cl)c3)c2cc1OC [Tivozanib] + Cc1nc(NC(=O)N2CCC[C@H]2C(N)=O)sc1-c1ccnc(C(C)(C)C(F)(F)F)c1 [Alpelisib] (partner 2 µM); 0.889
COc1cc2nccc(Oc3ccc(NC(=O)Nc4cc(C)on4)c(Cl)c3)c2cc1OC [Tivozanib] + CC(=O)Nc1cccc(-n2c(=O)n(C3CC3)c(=O)c3c(Nc4ccc(I)cc4F)n(C)c(=O)c(C)c32)c1 [Trametinib] (partner 0.02 µM); 0.344
COc1cc2nccc(Oc3ccc(NC(=O)Nc4cc(C)on4)c(Cl)c3)c2cc1OC [Tivozanib] + O=C(c1cc(Cc2n[nH]c(=O)c3ccccc23)ccc1F)N1CCN(C(=O)C2CC2)CC1 [Olaparib] (partner 8 µM); 0.331
Nc1ccn([C@@H]2O[C@H](CO)[C@@H](O)[C@@H]2O)c(=O)n1 [Cytarabine] + CC(=O)c1c(C)c2cnc(Nc3ccc(N4CCNCC4)cn3)nc2n(C2CCCC2)c1=O [Palbociclib] (partner 0.5 µM); 0.283
Nc1ccn([C@@H]2O[C@H](CO)[C@@H](O)[C@@H]2O)c(=O)n1 [Cytarabine] + Cc1nc(Nc2ncc(C(=O)Nc3c(C)cccc3Cl)s2)cc(N2CCN(CCO)CC2)n1 [Dasatinib] (partner 0.075 µM); 0.177
COc1cc2nccc(Oc3ccc(NC(=O)Nc4cc(C)on4)c(Cl)c3)c2cc1OC [Tivozanib] + CS(=O)(=O)N1CCN(Cc2cc3nc(-c4cccc5[nH]ncc45)nc(N4CCOCC4)c3s2)CC1 [Pictilisib] (partner 1 µM); 0.327

In plain terms, Nc1ccn([C@@H]2O[C@H](CO)[C@@H](O)[C@@H]2O)c(=O)n1 [Cytarabine] + NC(=O)Nc1cc(-c2cccc(F)c2)sc1C(=O)N[C@H]1CCCNC1 [AZD7762] (partner 0.2 µM) has a documented relative viability of 0.353

----------
system: NCI-H441; assay: relative viability (nuclei count vs DMSO), 5 days (fraction); higher = more cells survive; conditions: first compound 15.81 µM
ENDPOINT NAME: relative viability
Provide a numeric answer; units are not to be included.

Use the examples below as a reference point.
O=C(O)CCCCC(CCSCc1ccccc1)SCc1ccccc1 (centres undefined) [CPI-613] + CC(C)C[C@H](NC(=O)[C@H](Cc1ccccc1)NC(=O)c1cnccn1)B(O)O [Bortezomib] (partner 0.002 µM); 0.44
O=C(O)CCCCC(CCSCc1ccccc1)SCc1ccccc1 (centres undefined) [CPI-613] + CC1(C)CCC(c2ccc(Cl)cc2)=C(CN2CCN(c3ccc(C(=O)NS(=O)(=O)c4ccc(N[C@H](CCN5CCOCC5)CSc5ccccc5)c(S(=O)(=O)C(F)(F)F)c4)cc3)CC2)C1 [Navitoclax] (partner 0.5 µM); 0.805
O=C(O)CCCCC(CCSCc1ccccc1)SCc1ccccc1 (centres undefined) [CPI-613] + Cc1cc(Nc2cc(N3CCN(C)CC3)nc(Sc3ccc(NC(=O)C4CC4)cc3)n2)n[nH]1 [Tozasertib] (partner 0.1 µM); 0.633

// switching to the query molecule
In plain terms, O=C(O)CCCCC(CCSCc1ccccc1)SCc1ccccc1 (centres undefined) [CPI-613] + CC(=O)Nc1cccc(-n2c(=O)n(C3CC3)c(=O)c3c(Nc4ccc(I)cc4F)n(C)c(=O)c(C)c32)c1 [Trametinib] (partner 0.02 µM) has a documented relative viability of 0.429
